Recorded values, source PubChem BioAssay AID1619.

# ASSAY_SYSTEM: Leucine aminopeptidase (Plasmodium falciparum (isolate 3D7))
# RUN_DESCRIPTION: P. falciparum M17LAP inhibitors, primary screen, biochemical, fluorogenic H-Leu-NHMec substrate, 1536-well (AID 1619);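 further: plate controls were full reaction with DMSO carrier for no effect and no enzyme background for full effect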
# ASSAY_SETUP: recombinant M17LAP, H-Leu-NHMec fluorogenic kinetic assay; at 30 µM; active compounds read high
The campaign covered roughly 220,000 compounds. About 830 (0.38%) were called active. The list is a sample of the results. Measured potencies and affinities stand elsewhere.

COMPOUND	ASSAY_SYSTEM	inhibition (%)
CCN(CC)c1ccc(/C=c2/sc3nnc(-c4ccccc4C)n3c2=O)cc1	Leucine aminopeptidase (Plasmodium falciparum (isolate 3D7))	9.78
Cc1cc(NC(=O)c2ccc(NC(=O)C3CC3)cc2)no1	Leucine aminopeptidase (Plasmodium falciparum (isolate 3D7))	-1.13
O=C(CSc1nccc(=O)[nH]1)N1CCN(c2ccccc2)CC1	Leucine aminopeptidase (Plasmodium falciparum (isolate 3D7))	5.66
COc1ccc(/C=C2\SC(=O)N(CCn3cnnn3)C2=O)cc1	Leucine aminopeptidase (Plasmodium falciparum (isolate 3D7))	-2.01
O=C(COc1ccc(Br)cc1)Nc1nnc(-c2cccnc2)s1	Leucine aminopeptidase (Plasmodium falciparum (isolate 3D7))	-6.24
CCSc1nnc(NC(=O)C2CC2c2ccccc2)s1 (centres undefined)	Leucine aminopeptidase (Plasmodium falciparum (isolate 3D7))	15
O=C1CSC(c2cccnc2)N1c1ccc(F)cc1 (centres undefined)	Leucine aminopeptidase (Plasmodium falciparum (isolate 3D7))	9.53
Cc1ccc(/C=c2\sc3nc(-c4ccco4)nn3c2=O)o1	Leucine aminopeptidase (Plasmodium falciparum (isolate 3D7))	42.2
CCN(CC)c1ccc(/C=c2\sc3nnc(-c4ccccc4Cl)n3c2=O)cc1	Leucine aminopeptidase (Plasmodium falciparum (isolate 3D7))	1.48
COc1ccc(N2CCN(CC(O)COc3ccc([N+](=O)[O-])cc3)CC2)cc1 (centres undefined)	Leucine aminopeptidase (Plasmodium falciparum (isolate 3D7))	4.37
CN(C)c1ccnc2sc(C(=O)NCc3ccccc3)c(N)c12	Leucine aminopeptidase (Plasmodium falciparum (isolate 3D7))	-4.21
CCSc1nnc(NC(=O)NC2CCCCC2)s1	Leucine aminopeptidase (Plasmodium falciparum (isolate 3D7))	-14.6
CC(C)(C)C(=O)N1CCC[C@H]1C(O)(c1ccccc1)c1ccccc1	Leucine aminopeptidase (Plasmodium falciparum (isolate 3D7))	-4.15
CCCCn1nnnc1NCc1ccc(N2CCCC2)cc1	Leucine aminopeptidase (Plasmodium falciparum (isolate 3D7))	2.89

----------
# ASSAY_SYSTEM: Leucine aminopeptidase (Plasmodium falciparum (isolate 3D7))
# RUN_DESCRIPTION: P. falciparum M17LAP inhibitors, primary screen, biochemical, fluorogenic H-Leu-NHMec substrate, 1536-well (AID 1619);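 further: plate controls were full reaction with DMSO carrier for no effect and no enzyme background for full effect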
# ASSAY_SETUP: recombinant M17LAP, H-Leu-NHMec fluorogenic kinetic assay; at 30 µM; active compounds read high
About 830 (0.38%) of roughly 220,000 compounds were called active. Only a sample is shown. Measured potencies and affinities stand elsewhere.
Each entry below lists one item and its recorded inhibition value.

COMPOUND	inhibition, %
O=C(COC(=O)Cc1c[nH]c2ccccc12)Nc1ccccc1	0.86
CCC(=O)Nc1ccc(C(=O)CSc2nnc(-c3ccccc3F)n2C2CC2)cc1	4.72
COc1cc(C(=O)Nc2ccccc2-c2nnn(CC(N)=O)n2)cc(OC)c1OC	-3.22
C/C(=N/NC(=O)c1cn(-c2cccc(C)n2)cn1)c1ccc(C)cc1	-2.51
CCOC(=O)C1CCN(C(=O)Nc2ccc(OC(F)(F)F)cc2)CC1	7.03
COC(=O)c1ccc(Cl)c(NC(=O)CN2CCN(C)CC2)c1	-7.62
O=C(Nc1cccnc1)c1ccccc1O	8.37
Nc1cc(-c2cccc([N+](=O)[O-])c2)[nH]n1	10.1
Cc1cc(=O)oc2c1c(C(F)(F)F)nn2-c1ccccc1	2.02
CCc1ccccc1NC(=O)CSc1n[nH]c(C)c1[N+](=O)[O-]	-11.3
CCC(CC)Nc1ccc(C(CC(N)=O)NC(=O)Cc2ccc(Br)cc2)cc1[N+](=O)[O-] (stereo unspecified)	-4.54
CCOc1ccc(NC(=O)Nc2nnc(CC)s2)cc1	9.94
COc1ccc(N2CCN(c3nc4ccccc4n3CC(=O)c3ccccc3)CC2)cc1	12.7
CCCc1cc(=O)[nH]c(SCC(=O)Nc2cc(C)on2)n1	3.41
NC(=O)CSc1nc(-c2ccccc2)c(-c2ccccc2)o1	-9.73
Cc1cc(-c2onc(C)c2C(=O)O)no1	-2.33
CC(=O)N1CCC2(CC1)C(C#N)=C(N)Oc1n[nH]c(C)c12	8.86
Cc1cccc(C)c1NC(=O)CSCCO	0.75
COc1ccc(-n2c(SC(CN3CCCCC3)CN3CCCC3=O)nc3ccccc3c2=O)cc1 (stereo unspecified)	0.58
O=[N+]([O-])c1cccc(-c2ccn[nH]2)c1	0.95
Clc1ccc(-c2n[nH]c3c2CCC3)cc1Cl	-3.59
CCOC(=O)N1CCN(CCC(=O)Nc2ccc(OC)cc2)CC1	5.12
Cn1cnnc1SCC(=O)Nc1ccc(Br)cc1F	4.31
Cc1cccc(C)c1NC(=O)CSCC(=O)O	4.91
Cc1[nH]n(-c2cccc3ccccc23)c(=O)c1/C=N/NC(=O)c1cccc([N+](=O)[O-])c1	11.1
COCc1[nH]nc2c1C1(CCSCC1)C(C#N)=C(N)O2	11.4
CCN(CC)CCCN1C(=O)CSC1c1ccc2c(c1)OCO2 (stereo unspecified)	20.1
COc1ccc(N(CC(=O)NCc2ccccc2)S(=O)(=O)c2c(C)noc2C)cc1	-3.73
O=C(NCC1CCCO1)/C(=C\c1cccc([N+](=O)[O-])c1)NC(=O)c1ccccc1 (stereo unspecified)	-4.67
CC(=O)N1CCC2(CC1)C(C#N)=C(N)Oc1n[nH]c(C(F)(F)F)c12	-15.9
O=C(CSc1ccccn1)Nc1cccc2ccccc12	6.7
O=C(Nc1nnc(SCc2ccccc2F)s1)c1ccco1	8.78
O=C(CN1C(=O)C2C3C=CC(C4CC34)C2C1=O)NCc1ccco1 (stereo unspecified)	1.4
CCOc1ccc(NC(=O)C2CC(=O)N(C(C)C)C2)cc1 (stereo unspecified)	43.2
CC[n+]1ccccc1/C=C/c1ccc(N(C)C)cc1	56.5
CCn1cc(CNC(=O)/C=C/c2cnn(C)c2)c(C)n1	-7.7
CC(C)n1cnnc1SCC(=O)Nc1ccc(Br)cc1F	-3.86
CCOC(=O)C1CSC(CC(=O)Nc2ccc(Cl)cc2)C(=O)N1 (stereo unspecified)	13.4
O=C1OCC2OC(O)C(O)C(O)C2OC(=O)c2cc(O)c(O)c(O)c2-c2c(O)c(O)c3oc(=O)c4c(c(O)c(O)c5oc(=O)c2c3c54)-c2c1cc(O)c(O)c2O (stereo unspecified)	20.8
O=c1cc(O)c(-c2ccc(Cl)c(Cl)c2)c(Cl)[nH]1	4.59
COc1ccc(C(=O)CSc2nc(N)nc(SC)c2C#N)cc1	-5.8

----------
# ASSAY_SYSTEM: Leucine aminopeptidase (Plasmodium falciparum (isolate 3D7)) (UniProt Q8IL11)
# Sequence (Q8IL11 whole entry, looked up): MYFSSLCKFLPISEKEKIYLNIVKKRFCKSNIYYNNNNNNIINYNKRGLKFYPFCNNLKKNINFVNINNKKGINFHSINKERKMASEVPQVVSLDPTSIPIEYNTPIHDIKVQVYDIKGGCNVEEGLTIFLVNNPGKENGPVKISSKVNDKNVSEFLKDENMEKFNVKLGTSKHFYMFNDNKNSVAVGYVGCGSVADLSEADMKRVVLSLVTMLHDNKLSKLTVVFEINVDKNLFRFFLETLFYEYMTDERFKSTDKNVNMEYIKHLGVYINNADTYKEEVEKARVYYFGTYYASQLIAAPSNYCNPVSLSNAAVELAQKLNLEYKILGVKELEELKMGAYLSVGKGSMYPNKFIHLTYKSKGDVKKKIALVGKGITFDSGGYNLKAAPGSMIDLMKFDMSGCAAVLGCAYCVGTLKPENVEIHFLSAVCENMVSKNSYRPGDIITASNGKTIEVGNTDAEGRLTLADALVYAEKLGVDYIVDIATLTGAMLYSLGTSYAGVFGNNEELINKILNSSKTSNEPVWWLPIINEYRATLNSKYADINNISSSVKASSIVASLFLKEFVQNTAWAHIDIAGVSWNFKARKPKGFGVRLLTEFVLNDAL
# RUN_DESCRIPTION: P. falciparum M17LAP inhibitors, primary screen, biochemical, fluorogenic H-Leu-NHMec substrate, 1536-well (AID 1619);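 further: plate controls were full reaction with DMSO carrier for no effect and no enzyme background for full effect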
# ASSAY_SETUP: recombinant M17LAP, H-Leu-NHMec fluorogenic kinetic assay; at 30 µM; active compounds read high
In all, about 220,000 compounds went through this assay and about 830 (0.38%) were called active. These entries were drawn from the full list. Potency and affinity values are given separately.
Let's look at some molecules and their measured inhibition.
READOUT_LABEL: inhibition (%)

MOLECULE	READOUT_LABEL	UNIT_TAG	RECORDED_RESULT
O=c1c2sccc2nc(SCc2cc(=O)n3ccccc3n2)n1Cc1ccccn1	inhibition	%	18
CCn1c(CCNC(=O)c2ccc(OC)cc2)nnc1SCC(=O)Nc1ccccc1F	inhibition	%	1.93
CCCn1c(SCC(=O)NC2CCCc3ccccc32)n[nH]c1=O (stereo unspecified)	inhibition	%	-0.96
Cc1ccc(NC(=O)COC(=O)c2cccnc2)cc1	inhibition	%	25.2
Cc1ccc(OCCCC(=O)Nc2ccc(Br)cc2)cc1	inhibition	%	-1.62
CCOC(=O)Nc1ccc2nc3n(c(=O)c2c1)CCCCC3	inhibition	%	9.64

----------
# ASSAY_SYSTEM: Leucine aminopeptidase (Plasmodium falciparum (isolate 3D7))
# RUN_DESCRIPTION: P. falciparum M17LAP inhibitors, primary screen, biochemical, fluorogenic H-Leu-NHMec substrate, 1536-well (AID 1619);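 further: plate controls were full reaction with DMSO carrier for no effect and no enzyme background for full effect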
# ASSAY_SETUP: recombinant M17LAP, H-Leu-NHMec fluorogenic kinetic assay; at 30 µM; active compounds read high
Hit rate of the full screen: of about 220,000 compounds, about 830 (0.38%) were called active. Not all results are given here. Potency and affinity values are given separately.
READOUT_LABEL: inhibition (%)

COMPOUND	RECORDED_RESULT
COc1ccc(C(=O)Nc2cccc(-c3nc4ncccc4o3)c2C)cc1OC	2.86
Cc1ccc(-n2nnc3c(=O)n(CC(=O)N4CCC(C)CC4)cnc32)cc1	13.8
Cc1ncc([N+](=O)[O-])n1Cc1ccccc1F	10.8
Cc1cc(C(F)(F)F)nc(SCC(=O)Nc2ccccc2)n1	-7.44
CCCN1Cc2cccc(C(=O)Nc3ccc(C)cc3)c2C1=O	-1.02
COC(=O)c1cccc(NC(=O)CSc2nnc(C)n2C)c1	12.6
CCSc1cnn(-c2ccccc2)c(=O)c1SCC	9.04
COc1ccc(C(=O)N2CCc3cc(OC)c(OC)cc3C2c2cccc([N+](=O)[O-])c2)cc1OC (configuration not stated)	-0.93
CC(Sc1ccccc1)C(=O)Nc1ccc(S(=O)(=O)N2CCOCC2)cc1 (configuration not stated)	11.8
CC(=O)/C(C#N)=C1\NC(=O)C(Cc2ccccc2C)S1 (configuration not stated)	23.4
CCn1c(SCC(=O)N(C)c2c(N)n(Cc3ccccc3)c(=O)[nH]c2=O)nc2ccccc21	-11.8
CC(C)(C)Sc1ccc(/C=N/O)cc1[N+](=O)[O-]	-1.67
